The measurements presented in this section are drawn from patent US20150274828A1.

biological target: T1, EGFR-Fc fusion protein (recombinant EGFR extracellular region-Fc) (human, UniProt P00533 25-645); assay: BLI ForteBio QKe, biotinylated EGFR-Fc on streptavidin sensor, antibody 20 nM; fold reduction of affinity, parent Ame55 = 1;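 also: parent antibody affinity set as 1, with values giving the fold drop in affinity of each mutant antibody relative to that parent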
T1 construct: extracellular domain; not shown: Fc part supplied by vector pABG1
Assay Metric: Affinity change

[
  {
    "Binder": "Ame55 mutant, heavy chain 52D (antibody, V domains shown, Mutant of Ame55) VH: EVQLVQSGAEVKKPGESLKISCKGSGYSFTSYWIGWVRQMPGKGLEWMGIIDPGDSDTRYSPSFQGQVTISADKSISTAYLQWSSLKASDTAMYYCARGIIYPSNVAVWGQGTLVTVSS VL: SYELTQPPSVSVAPGQTARITCSGDALGDKYASWYQQKPGQAPVLVIYEDSKRPSGIPERFSGSNSGNTATLTISGTQAEDEADYYCSVWDGDWGMPVFGGGTKLTVLG",
    "Reported Result": "> 10 fold"
  }
]

[in] I'd like to know its Affinity change. The binder in question is Ame55 mutant, light chain 89S(A1) (antibody, V domains shown, Mutant of Ame55) VH: EVQLVQSGAEVKKPGESLKISCKGSGYSFTSYWIGWVRQMPGKGLEWMGIIYPGDSDTRYSPSFQGQVTISADKSISTAYLQWSSLKASDTAMYYCARGIIYPSNVAVWGQGTLVTVSS VL: SYELTQPPSVSVAPGQTARITCSGDALGDKYASWYQQKPGQAPVLVIYEDSKRPSGIPERFSGSNSGNTATLTISGTQAEDEADYYCSSWDGDWGMPVFGGGTKLTVLG
[out] 0.5 fold

[in] Any idea what its Affinity change is? The binder is Ame55 mutant, light chain 90A (antibody, V domains shown, Mutant of Ame55) VH: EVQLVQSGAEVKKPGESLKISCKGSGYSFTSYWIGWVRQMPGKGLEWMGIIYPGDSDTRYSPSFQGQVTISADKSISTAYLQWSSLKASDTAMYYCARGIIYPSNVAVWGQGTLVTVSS VL: SYELTQPPSVSVAPGQTARITCSGDALGDKYASWYQQKPGQAPVLVIYEDSKRPSGIPERFSGSNSGNTATLTISGTQAEDEADYYCSVADGDWGMPVFGGGTKLTVLG
[out] > 10 fold

[in] Fill in: Affinity change of Ame55 mutant, light chain 33Y (antibody, V domains shown, Mutant of Ame55) VH: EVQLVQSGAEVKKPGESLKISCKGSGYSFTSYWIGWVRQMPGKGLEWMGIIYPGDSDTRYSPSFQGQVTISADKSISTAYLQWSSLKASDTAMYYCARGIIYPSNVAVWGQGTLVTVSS VL: SYELTQPPSVSVAPGQTARITCSGDALGDKYAYWYQQKPGQAPVLVIYEDSKRPSGIPERFSGSNSGNTATLTISGTQAEDEADYYCSVWDGDWGMPVFGGGTKLTVLG is ___
[out] 2 fold

[in] For the binder Ame55 mutant, light chain 88L (antibody, V domains shown, Mutant of Ame55) VH: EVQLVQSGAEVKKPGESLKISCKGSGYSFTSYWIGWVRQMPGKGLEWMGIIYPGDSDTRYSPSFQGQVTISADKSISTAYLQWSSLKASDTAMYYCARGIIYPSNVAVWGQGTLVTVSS VL: SYELTQPPSVSVAPGQTARITCSGDALGDKYASWYQQKPGQAPVLVIYEDSKRPSGIPERFSGSNSGNTATLTISGTQAEDEADYYCLVWDGDWGMPVFGGGTKLTVLG , what Affinity change is on record?
[out] 5 fold

[in] Entry Ame55 mutant, light chain 92A (antibody, V domains shown, Mutant of Ame55) VH: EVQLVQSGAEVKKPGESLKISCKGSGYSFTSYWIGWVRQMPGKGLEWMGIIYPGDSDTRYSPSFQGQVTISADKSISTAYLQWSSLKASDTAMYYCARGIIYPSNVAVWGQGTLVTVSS VL: SYELTQPPSVSVAPGQTARITCSGDALGDKYASWYQQKPGQAPVLVIYEDSKRPSGIPERFSGSNSGNTATLTISGTQAEDEADYYCSVWDADWGMPVFGGGTKLTVLG has what Affinity change?
[out] 2 fold
